Source listed as PubChem BioAssay.

Documented composite z-score across a set of compounds
# system-tested: Torsin-1A (Homo sapiens) (UniProt O14656)
# Sequence (O14656 whole entry, looked up): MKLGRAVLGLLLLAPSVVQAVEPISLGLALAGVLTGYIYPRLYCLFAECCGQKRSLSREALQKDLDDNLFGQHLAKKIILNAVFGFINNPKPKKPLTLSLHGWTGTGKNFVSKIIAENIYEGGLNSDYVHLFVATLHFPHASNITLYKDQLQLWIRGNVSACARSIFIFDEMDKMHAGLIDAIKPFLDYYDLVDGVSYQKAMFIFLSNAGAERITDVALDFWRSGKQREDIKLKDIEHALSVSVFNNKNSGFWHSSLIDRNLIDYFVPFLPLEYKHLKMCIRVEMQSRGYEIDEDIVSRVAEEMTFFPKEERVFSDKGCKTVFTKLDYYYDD
# protocol-text: small-molecule binders of mutant TOR1A in lysate, primary screen, cell lysate, small-molecule microarray, COS7 lysate, 635/667 nm fluorescence (AID 1150);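 note: score pools 667 nm emission and signal to noise measuring lysate protein binding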
# experimental-conditions: COS7 hTOR1A mutant lysate, 635 nm fluorescence, higher = more signal
# respond with the number and nothing more

# example entries with known answers
- line-notation: "CC(C)CON=C1C[C@@H](O)[C@@H](O)[C@@H]2[C@@H]3C(=O)N(c4cccc(Oc5ccccc5)c4)C(=O)[C@@H]3CC[C@H]12"
  system-tested: "Torsin-1A (Homo sapiens) (UniProt O14656)"
  measure: "composite z-score"
  numeric-readout: 0.22
- line-notation: "CCN1C(=O)[C@H]2[C@H]3[C@H](O)[C@H](O)CC(=NNC(=O)OCc4ccc(OC)cc4)[C@H]3CC[C@H]2C1=O"
  system-tested: "Torsin-1A (Homo sapiens) (UniProt O14656)"
  measure: "composite z-score"
  numeric-readout: -0.023

I would be grateful if you could share the reported composite z-score for CC(C)=NOCc1ccc(-c2cn([C@@H]3COC[C@H]3O)nn2)cc1 .
0.162

I would be grateful if you could share the reported composite z-score for C[C@@H](ON=C1[C@H]2CCn3c(=O)n(-c4ccccc4)c(=O)n3[C@H]2[C@H](O)[C@@H]2O[C@H]12)c1cn([C@H](CO)Cc2ccccc2)nn1 .
0.199

I would be grateful if you could share the reported composite z-score for COc1ccc(COC(=O)NN=C2C[C@@H](O)[C@@H](O)[C@@H]3[C@@H]4C(=O)N(C(C)(C)C)C(=O)[C@@H]4CC[C@H]23)cc1 .
-0.178

I would be grateful if you could share the reported composite z-score for CCOC(=O)NN=C1C[C@@H](O)[C@@H](O)[C@@H]2[C@@H]3C(=O)N(Cc4ccc5c(c4)OCO5)C(=O)[C@@H]3CC[C@@H]12 .
0.0143

I would be grateful if you could share the reported composite z-score for O=C1[C@H]2[C@H]3[C@H](O)[C@H](O)CC(=NOCc4ccccc4)[C@H]3CC[C@H]2C(=O)N1Cc1ccccc1 .
0.358

I would be grateful if you could share the reported composite z-score for CO[C@@H]1COC(=O)CC=C[C@H](C)COC(=O)[C@H](C)NC(=O)CC=C[C@H]1C .
1.16

I would be grateful if you could share the reported composite z-score for CCCNC(=O)OC[C@H]1O[C@H](CCON=C(C)CCC(=O)OC[C@H]2O[C@H](C#Cc3ccccc3)C=C[C@@H]2Oc2ccc(C)cc2)C=C[C@@H]1Oc1ccc(OC)cc1 .
-0.352

----------
Documented z-score across a set of compounds
# protocol-text: basal MM1S mitochondrial membrane potential changes, profiling panel, cell-based, JC-1 fluorescence, 24 h, 100 nL compound (AID 1170); note: test concentration not given here
# experimental-conditions: higher = more signal

I would be grateful if you could share the reported z-score for CC(C)=NO[C@@H](C)c1cc(-c2c(C)cc(C)cc2C)no1 .
-0.39

I would be grateful if you could share the reported z-score for CC(C)=CCCC(C)=CCON=C1C[C@@H](O)[C@@H](O)[C@@H]2[C@@H]3C(=O)N([C@@H](C)c4ccccc4)C(=O)[C@@H]3CC[C@H]12 .
-1.78

I would be grateful if you could share the reported z-score for Cc1cc2c(nc1C)CCCN2CC(C)ON=C[C@@H](C)[C@H](OCc1ccccc1)C(C)C (stereo partly drawn) .
-0.483

----------
Documented z-score across a set of compounds
# protocol-text: E. coli DRC41 culture turbidity changes, primary screen, E. coli filamentation inducer project, strain DRC41, OD650, 48 h (AID 1152);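 note: E. coli MC1000 strain DRC41 lacking acrAB efflux pump and sulA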
# experimental-conditions: E. coli DRC41 (acrAB sulA), higher = more signal, called active from +8 up or from −8 down
# respond with the number and nothing more

I would be grateful if you could share the reported z-score for CCOC(=O)[C@H](Cc1ccccc1)NC(=O)CCC1CC(OC(=O)NCc2cccc3ccccc23)CC2(CCCC(COC(=O)NCCCN3CCCC3=O)O2)O1 (stereo partly drawn) .
-0.0133

I would be grateful if you could share the reported z-score for CCN1C(=O)[C@H]2[C@H]3[C@H](O)[C@H](O)CC(=NNC(=O)OCc4ccc(OC)cc4)[C@H]3CC[C@H]2C1=O .
0.386

I would be grateful if you could share the reported z-score for CCCNC(=O)OC[C@H]1O[C@H](CCON=C(C)CCC(=O)OC[C@H]2O[C@H](C#Cc3ccccc3)C=C[C@@H]2Oc2ccc(C)cc2)C=C[C@@H]1Oc1ccc(OC)cc1 .
0.181

----------
# protocol-text: CREB reporter modulators under forskolin, primary screen, cell-based, PC12, CRE-LacZ reporter, forskolin-stimulated (AID 1146);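 note: PC12 cells with 6xCRE LacZ reporter stimulated by forskolin 10 µM; beta-galactosidase reporter signal reflecting CREB driven transcription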
# experimental-conditions: luminescence, 4.5 h, higher = more signal, called active from +8 up or from −8 down
z-score below 0.5 gives not met; z-score at or above it gives met.

- compound: "CCCNC(=O)OC[C@H]1O[C@H](CCON=C(C)CCC(=O)OC[C@H]2O[C@H](C#Cc3ccccc3)C=C[C@@H]2Oc2ccc(C)cc2)C=C[C@@H]1Oc1ccc(OC)cc1"
  label-value: "met"

Hi team, for CC(C)C(=O)N[C@@H]1CCCN1C(=O)C=Cc1ccccc1 , is the recorded z-score at or above 0.5?
met

Hi team, for C[C@@H]1CC[C@@H](C(=O)O)N[C@H]1c1ccc(-c2ccco2)cc1 , is the recorded z-score at or above 0.5?
not met

Hi team, for CCN1C(=O)[C@H]2[C@H]3[C@H](O)[C@H](O)CC(=NNC(=O)OCc4ccc(OC)cc4)[C@H]3CC[C@H]2C1=O , is the recorded z-score at or above 0.5?
not met

Hi team, for C#CCCCON=C1C[C@@H](O)[C@@H](O)[C@@H]2[C@@H]3C(=O)N(C4CCCCC4)C(=O)[C@@H]3CC[C@H]12 , is the recorded z-score at or above 0.5?
not met

Hi team, for CC(C)=NOC[C@@H](O)COCc1ccco1 , is the recorded z-score at or above 0.5?
not met

Hi team, for COc1ccc(COC(=O)NN=C2C[C@@H](O)[C@@H](O)[C@@H]3[C@@H]4C(=O)N(C(C)(C)C)C(=O)[C@@H]4CC[C@H]23)cc1 , is the recorded z-score at or above 0.5?
not met

Hi team, for O=C(NN=C1C[C@@H](O)[C@@H](O)[C@@H]2[C@@H]3C(=O)N(Cc4ccc5c(c4)OCO5)C(=O)[C@@H]3CC[C@H]12)OCc1ccccc1 , is the recorded z-score at or above 0.5?
not met

Hi team, for C[C@@H](ON=C1[C@H]2CCn3c(=O)n(-c4ccccc4)c(=O)n3[C@H]2[C@H](O)[C@@H]2O[C@H]12)c1cn([C@H](CO)Cc2ccccc2)nn1 , is the recorded z-score at or above 0.5?
met

Hi team, for CCOC(=O)[C@H](Cc1ccccc1)NC(=O)CCC1CC(OC(=O)NCc2cccc3ccccc23)CC2(CCCC(COC(=O)NCCCN3CCCC3=O)O2)O1 (stereo not given in full) , is the recorded z-score at or above 0.5?
not met

----------
# system-tested: NADPH oxidase 5 (Homo sapiens) (UniProt Q96PH1)
# Sequence (Q96PH1 whole entry, looked up): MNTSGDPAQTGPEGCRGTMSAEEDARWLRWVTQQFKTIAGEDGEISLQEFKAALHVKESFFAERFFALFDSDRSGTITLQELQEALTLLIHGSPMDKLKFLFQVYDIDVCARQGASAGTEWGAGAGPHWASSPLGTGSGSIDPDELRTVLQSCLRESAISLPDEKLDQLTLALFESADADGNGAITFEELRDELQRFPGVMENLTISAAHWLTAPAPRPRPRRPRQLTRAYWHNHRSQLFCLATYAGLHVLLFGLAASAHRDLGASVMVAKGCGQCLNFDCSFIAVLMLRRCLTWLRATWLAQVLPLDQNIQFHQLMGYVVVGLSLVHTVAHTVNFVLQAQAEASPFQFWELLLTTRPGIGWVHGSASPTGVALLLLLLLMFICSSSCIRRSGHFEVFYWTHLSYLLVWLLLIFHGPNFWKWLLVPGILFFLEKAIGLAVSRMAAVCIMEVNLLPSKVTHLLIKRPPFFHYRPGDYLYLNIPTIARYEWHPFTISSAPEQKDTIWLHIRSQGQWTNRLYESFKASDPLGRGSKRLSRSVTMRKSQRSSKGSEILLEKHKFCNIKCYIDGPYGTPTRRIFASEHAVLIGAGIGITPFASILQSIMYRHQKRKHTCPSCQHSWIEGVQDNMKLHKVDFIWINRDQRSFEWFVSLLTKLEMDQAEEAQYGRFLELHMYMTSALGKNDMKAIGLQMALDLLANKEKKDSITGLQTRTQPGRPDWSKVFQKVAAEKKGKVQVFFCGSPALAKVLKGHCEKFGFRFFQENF
# protocol-text: NOX5-dependent H2O2 signal modulators, primary screen, NOX inhibitor project, cell-based, HEK293-NOX5, Amplex Red fluorescence (AID 1161)
# experimental-conditions: HEK293-NOX5, ionomycin, 45 min, higher = more signal
Documented z-score across a set of compounds

# example entries with known answers
- compound: "CO[C@H]1COC(=O)CC=C[C@@H](C)COC(=O)[C@@H](OCc2ccccc2)C=C[C@@H]1C"
  system-tested: "NADPH oxidase 5 (Homo sapiens) (UniProt Q96PH1)"
  z-score: 0.308
- compound: "CCOC(=O)CCN1C(=O)[C@H]2[C@H]3[C@H](O)[C@H](O)CC(=NNC(=O)OCC)[C@@H]3CC[C@H]2C1=O"
  system-tested: "NADPH oxidase 5 (Homo sapiens) (UniProt Q96PH1)"
  z-score: 0.754
- compound: "CC(C)=NOCc1ccc(-c2cn([C@@H]3COC[C@H]3O)nn2)cc1"
  system-tested: "NADPH oxidase 5 (Homo sapiens) (UniProt Q96PH1)"
  z-score: -0.388

I would be grateful if you could share the reported z-score for CCOC(=O)NN=C1C[C@@H](O)[C@@H](O)[C@@H]2[C@@H]3C(=O)N(Cc4ccccc4)C(=O)[C@@H]3CC[C@@H]12 .
-0.365

I would be grateful if you could share the reported z-score for C[C@@H](c1ccccc1)N1C(=O)[C@H]2[C@H]3[C@H](O)[C@H](O)CC(=O)[C@@H]3CC[C@H]2C1=O .
0.776

I would be grateful if you could share the reported z-score for CCOC(=O)[C@H](CC(C)C)NC(=O)CCC1CC(OC(=O)NCc2cccc3ccccc23)CC2(CCCC(COC(=O)NCc3ccccc3)O2)O1 (some centres not stated) .
0.281

I would be grateful if you could share the reported z-score for O=C(NN=C1C[C@@H](O)[C@@H](O)[C@@H]2[C@@H]3C(=O)N(Cc4ccc5c(c4)OCO5)C(=O)[C@@H]3CC[C@H]12)OCc1ccccc1 .
0.664
